A collection of compounds and their measured Vd
# methodDescription: Volume of distribution at steady state in Balb/c mouse at 5 mg/kg, iv measured upto 24 hrs by LC-MS/MS analysis
# Assay type: ADME, organism-based
# assayConditions: in vivo, read-out: Vdss
recordedEndpoint: Vd

1) CC1(C)CCc2c(C(=O)Nc3cnn([C@@H](CCN4CCN(CCC5CCN(c6ccc7c(c6)C(=O)N(C6CCC(=O)NC6=O)C7=O)CC5)CC4)c4ccccc4)c3)n[nH]c2C1.O=C(O)C(F)(F)F (some centres not stated) :: 2.06 L/kg
2) CN(CCCCCC(=O)Nc1ccc2c(c1)C(=O)N(C1CCC(=O)NC1=O)C2=O)CC[C@@H](c1ccccc1)n1cc(NC(=O)c2n[nH]c3c2CCC(C)(C)C3)cn1.O=C(O)C(F)(F)F (some centres not stated) :: 12.9 L/kg
